Entries and their measured switch fluorescence ratio follow.
test system: ATP; assay: switch fluorescence ratio, 500 uM ATP over buffer (Cy3 cluster intensity, sum of 5 cycles each) (fold (ratio)); higher = stronger signal-on switching upon ATP binding; sequences stand for … in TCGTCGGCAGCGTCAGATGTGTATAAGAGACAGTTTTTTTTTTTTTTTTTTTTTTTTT…TC; conditions: aptamer strand: ATP DNA aptamer (quencher-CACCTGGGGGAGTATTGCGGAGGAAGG + anchor), 100 nM annealed; ATP concentration: 500 uM;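 further: ATP exposure 15 min at 22 °C before imaging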

>  <MACROMOLECULE SEQUENCE>
TTTGGATACG

>  <switch fluorescence ratio>
1.01

$$$$
>  <MACROMOLECULE SEQUENCE>
TCACAAATAA

>  <switch fluorescence ratio>
0.993

$$$$
>  <MACROMOLECULE SEQUENCE>
CGGTTTTGCG

>  <switch fluorescence ratio>
0.985

$$$$

* * *

tested on: ATP; test: switch fluorescence ratio, 500 uM ATP over buffer (Cy3 cluster intensity, sum of 5 cycles each) (fold (ratio)); higher = stronger signal-on switching upon ATP binding; sequences stand for … in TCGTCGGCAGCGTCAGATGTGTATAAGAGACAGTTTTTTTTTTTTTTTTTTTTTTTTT…TC; details: aptamer strand: ATP DNA aptamer (quencher-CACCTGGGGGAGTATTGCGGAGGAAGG + anchor), 100 nM annealed; ATP concentration: 500 uM;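 further: ATP exposure 15 min at 22 °C before imaging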

>  <MACROMOLECULE SEQUENCE>
GGGGATTAGT

>  <switch fluorescence ratio>
0.997

$$$$
>  <MACROMOLECULE SEQUENCE>
TGGATGATAT

>  <switch fluorescence ratio>
0.991

$$$$
>  <MACROMOLECULE SEQUENCE>
TGTGAGTTTT

>  <switch fluorescence ratio>
0.974

$$$$
>  <MACROMOLECULE SEQUENCE>
ATCTTCGGTT

>  <switch fluorescence ratio>
1

$$$$
>  <MACROMOLECULE SEQUENCE>
CCTGTGCAGG

>  <switch fluorescence ratio>
1.11

$$$$
>  <MACROMOLECULE SEQUENCE>
TAAAATTCGG

>  <switch fluorescence ratio>
1.01

$$$$
>  <MACROMOLECULE SEQUENCE>
ACGACTGCGT

>  <switch fluorescence ratio>
1.02

$$$$
>  <MACROMOLECULE SEQUENCE>
TGATTGGTGG

>  <switch fluorescence ratio>
1.01

$$$$
>  <MACROMOLECULE SEQUENCE>
GGTTTTTTAA

>  <switch fluorescence ratio>
0.995

$$$$
>  <MACROMOLECULE SEQUENCE>
GCGAACAACT

>  <switch fluorescence ratio>
1.01

$$$$
>  <MACROMOLECULE SEQUENCE>
TCGGGCGATG

>  <switch fluorescence ratio>
0.983

$$$$
>  <MACROMOLECULE SEQUENCE>
CACAGTGTCA

>  <switch fluorescence ratio>
1.01

$$$$
>  <MACROMOLECULE SEQUENCE>
AAAAATCTGC

>  <switch fluorescence ratio>
1.03

$$$$
>  <MACROMOLECULE SEQUENCE>
TGCGTTGGTG

>  <switch fluorescence ratio>
1.01

$$$$
>  <MACROMOLECULE SEQUENCE>
AATCGGGAGG

>  <switch fluorescence ratio>
0.963

$$$$
>  <MACROMOLECULE SEQUENCE>
GCCAGGCTGG

>  <switch fluorescence ratio>
1.04

$$$$

* * *

Entries and their measured switch fluorescence ratio follow.
test system: ATP; test: switch fluorescence ratio, 500 uM ATP over buffer (Cy3 cluster intensity, sum of 5 cycles each) (fold (ratio)); higher = stronger signal-on switching upon ATP binding; sequences stand for … in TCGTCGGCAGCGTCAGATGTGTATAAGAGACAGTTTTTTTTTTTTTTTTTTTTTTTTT…TC; details: aptamer strand: ATP DNA aptamer (quencher-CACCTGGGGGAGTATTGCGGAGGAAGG + anchor), 100 nM annealed; ATP concentration: 500 uM;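 further: ATP exposure 15 min at 22 °C before imaging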
OBSERVED PROPERTY: switch fluorescence ratio

>  <MACROMOLECULE SEQUENCE>
TAATTTTATA

>  <TEST TARGET>
ATP;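 further: ATP exposure 15 min at 22 °C before imaging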

>  <OBSERVED PROPERTY>
switch fluorescence ratio

>  <READING>
0.979

$$$$
>  <MACROMOLECULE SEQUENCE>
GTTGTAGGGG

>  <TEST TARGET>
ATP;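 further: ATP exposure 15 min at 22 °C before imaging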

>  <OBSERVED PROPERTY>
switch fluorescence ratio

>  <READING>
0.987

$$$$
>  <MACROMOLECULE SEQUENCE>
TGGGGAAATT

>  <TEST TARGET>
ATP;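 further: ATP exposure 15 min at 22 °C before imaging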

>  <OBSERVED PROPERTY>
switch fluorescence ratio

>  <READING>
1.01

$$$$
>  <MACROMOLECULE SEQUENCE>
ATGGGGGGTC

>  <TEST TARGET>
ATP;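 further: ATP exposure 15 min at 22 °C before imaging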

>  <OBSERVED PROPERTY>
switch fluorescence ratio

>  <READING>
0.985

$$$$
>  <MACROMOLECULE SEQUENCE>
TGATTTGGTT

>  <TEST TARGET>
ATP;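 further: ATP exposure 15 min at 22 °C before imaging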

>  <OBSERVED PROPERTY>
switch fluorescence ratio

>  <READING>
0.99

$$$$
>  <MACROMOLECULE SEQUENCE>
TACAACTAGA

>  <TEST TARGET>
ATP;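 further: ATP exposure 15 min at 22 °C before imaging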

>  <OBSERVED PROPERTY>
switch fluorescence ratio

>  <READING>
1

$$$$
>  <MACROMOLECULE SEQUENCE>
ATTAATAGG

>  <TEST TARGET>
ATP;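 further: ATP exposure 15 min at 22 °C before imaging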

>  <OBSERVED PROPERTY>
switch fluorescence ratio

>  <READING>
0.997

$$$$
>  <MACROMOLECULE SEQUENCE>
TAGTGAGGGA

>  <TEST TARGET>
ATP;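 further: ATP exposure 15 min at 22 °C before imaging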

>  <OBSERVED PROPERTY>
switch fluorescence ratio

>  <READING>
0.992

$$$$
>  <MACROMOLECULE SEQUENCE>
GAGGATTTAA

>  <TEST TARGET>
ATP;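 further: ATP exposure 15 min at 22 °C before imaging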

>  <OBSERVED PROPERTY>
switch fluorescence ratio

>  <READING>
1

$$$$
>  <MACROMOLECULE SEQUENCE>
AACGTTGCCC

>  <TEST TARGET>
ATP;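 further: ATP exposure 15 min at 22 °C before imaging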

>  <OBSERVED PROPERTY>
switch fluorescence ratio

>  <READING>
1.01

$$$$
>  <MACROMOLECULE SEQUENCE>
ATTGAAGTGC

>  <TEST TARGET>
ATP;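 further: ATP exposure 15 min at 22 °C before imaging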

>  <OBSERVED PROPERTY>
switch fluorescence ratio

>  <READING>
1.01

$$$$
>  <MACROMOLECULE SEQUENCE>
AAGAGGCTAA

>  <TEST TARGET>
ATP;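 further: ATP exposure 15 min at 22 °C before imaging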

>  <OBSERVED PROPERTY>
switch fluorescence ratio

>  <READING>
1

$$$$
>  <MACROMOLECULE SEQUENCE>
ACGTGCCGGT

>  <TEST TARGET>
ATP;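 further: ATP exposure 15 min at 22 °C before imaging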

>  <OBSERVED PROPERTY>
switch fluorescence ratio

>  <READING>
0.99

$$$$
>  <MACROMOLECULE SEQUENCE>
AACCAGAGTA

>  <TEST TARGET>
ATP;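 further: ATP exposure 15 min at 22 °C before imaging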

>  <OBSERVED PROPERTY>
switch fluorescence ratio

>  <READING>
1.01

$$$$
>  <MACROMOLECULE SEQUENCE>
TAAGGTTACT

>  <TEST TARGET>
ATP;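 further: ATP exposure 15 min at 22 °C before imaging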

>  <OBSERVED PROPERTY>
switch fluorescence ratio

>  <READING>
0.977

$$$$
>  <MACROMOLECULE SEQUENCE>
ACGGGTGGCT

>  <TEST TARGET>
ATP;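 further: ATP exposure 15 min at 22 °C before imaging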

>  <OBSERVED PROPERTY>
switch fluorescence ratio

>  <READING>
1

$$$$
>  <MACROMOLECULE SEQUENCE>
TGTTGTTGAA

>  <TEST TARGET>
ATP;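 further: ATP exposure 15 min at 22 °C before imaging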

>  <OBSERVED PROPERTY>
switch fluorescence ratio

>  <READING>
1.01

$$$$
>  <MACROMOLECULE SEQUENCE>
GTTGGGCGGG

>  <TEST TARGET>
ATP;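 further: ATP exposure 15 min at 22 °C before imaging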

>  <OBSERVED PROPERTY>
switch fluorescence ratio

>  <READING>
0.991

$$$$
>  <MACROMOLECULE SEQUENCE>
TTGTTGTTAG

>  <TEST TARGET>
ATP;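 further: ATP exposure 15 min at 22 °C before imaging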

>  <OBSERVED PROPERTY>
switch fluorescence ratio

>  <READING>
1.01

$$$$
>  <MACROMOLECULE SEQUENCE>
ATGCTTATCA

>  <TEST TARGET>
ATP;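 further: ATP exposure 15 min at 22 °C before imaging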

>  <OBSERVED PROPERTY>
switch fluorescence ratio

>  <READING>
0.981

$$$$
>  <MACROMOLECULE SEQUENCE>
CAGAGGATAG

>  <TEST TARGET>
ATP;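 further: ATP exposure 15 min at 22 °C before imaging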

>  <OBSERVED PROPERTY>
switch fluorescence ratio

>  <READING>
1.02

$$$$
>  <MACROMOLECULE SEQUENCE>
ACTCTGGTCA

>  <TEST TARGET>
ATP;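 further: ATP exposure 15 min at 22 °C before imaging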

>  <OBSERVED PROPERTY>
switch fluorescence ratio

>  <READING>
0.986

$$$$
>  <MACROMOLECULE SEQUENCE>
TAAATTAGTT

>  <TEST TARGET>
ATP;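 further: ATP exposure 15 min at 22 °C before imaging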

>  <OBSERVED PROPERTY>
switch fluorescence ratio

>  <READING>
1.01

$$$$
>  <MACROMOLECULE SEQUENCE>
ACTGTGCCGG

>  <TEST TARGET>
ATP;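 further: ATP exposure 15 min at 22 °C before imaging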

>  <OBSERVED PROPERTY>
switch fluorescence ratio

>  <READING>
1.02

$$$$
>  <MACROMOLECULE SEQUENCE>
CGGGGCGCGA

>  <TEST TARGET>
ATP;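 further: ATP exposure 15 min at 22 °C before imaging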

>  <OBSERVED PROPERTY>
switch fluorescence ratio

>  <READING>
1.1

$$$$
>  <MACROMOLECULE SEQUENCE>
TGATGGGAGC

>  <TEST TARGET>
ATP;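 further: ATP exposure 15 min at 22 °C before imaging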

>  <OBSERVED PROPERTY>
switch fluorescence ratio

>  <READING>
0.982

$$$$
>  <MACROMOLECULE SEQUENCE>
CATAGCATCC

>  <TEST TARGET>
ATP;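 further: ATP exposure 15 min at 22 °C before imaging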

>  <OBSERVED PROPERTY>
switch fluorescence ratio

>  <READING>
1.48

$$$$
>  <MACROMOLECULE SEQUENCE>
TTGTGGTACG

>  <TEST TARGET>
ATP;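 further: ATP exposure 15 min at 22 °C before imaging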

>  <OBSERVED PROPERTY>
switch fluorescence ratio

>  <READING>
0.981

$$$$
>  <MACROMOLECULE SEQUENCE>
GGTTTCAGGG

>  <TEST TARGET>
ATP;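 further: ATP exposure 15 min at 22 °C before imaging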

>  <OBSERVED PROPERTY>
switch fluorescence ratio

>  <READING>
0.986

$$$$
>  <MACROMOLECULE SEQUENCE>
TGGGGACCTT

>  <TEST TARGET>
ATP;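 further: ATP exposure 15 min at 22 °C before imaging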

>  <OBSERVED PROPERTY>
switch fluorescence ratio

>  <READING>
1

$$$$
>  <MACROMOLECULE SEQUENCE>
GCTATGAACC

>  <TEST TARGET>
ATP;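 further: ATP exposure 15 min at 22 °C before imaging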

>  <OBSERVED PROPERTY>
switch fluorescence ratio

>  <READING>
1.03

$$$$
>  <MACROMOLECULE SEQUENCE>
CGATTATCGG

>  <TEST TARGET>
ATP;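 further: ATP exposure 15 min at 22 °C before imaging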

>  <OBSERVED PROPERTY>
switch fluorescence ratio

>  <READING>
0.999

$$$$
>  <MACROMOLECULE SEQUENCE>
GGTTGTACGA

>  <TEST TARGET>
ATP;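 further: ATP exposure 15 min at 22 °C before imaging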

>  <OBSERVED PROPERTY>
switch fluorescence ratio

>  <READING>
0.986

$$$$
